Experimental system: [GSPT1]-[compound of formula (I)]-[CRBN/DDB1] complex (Homo sapiens, UniProt P15170+Q96SW2)
Sequence (P15170 whole entry, one chain of several): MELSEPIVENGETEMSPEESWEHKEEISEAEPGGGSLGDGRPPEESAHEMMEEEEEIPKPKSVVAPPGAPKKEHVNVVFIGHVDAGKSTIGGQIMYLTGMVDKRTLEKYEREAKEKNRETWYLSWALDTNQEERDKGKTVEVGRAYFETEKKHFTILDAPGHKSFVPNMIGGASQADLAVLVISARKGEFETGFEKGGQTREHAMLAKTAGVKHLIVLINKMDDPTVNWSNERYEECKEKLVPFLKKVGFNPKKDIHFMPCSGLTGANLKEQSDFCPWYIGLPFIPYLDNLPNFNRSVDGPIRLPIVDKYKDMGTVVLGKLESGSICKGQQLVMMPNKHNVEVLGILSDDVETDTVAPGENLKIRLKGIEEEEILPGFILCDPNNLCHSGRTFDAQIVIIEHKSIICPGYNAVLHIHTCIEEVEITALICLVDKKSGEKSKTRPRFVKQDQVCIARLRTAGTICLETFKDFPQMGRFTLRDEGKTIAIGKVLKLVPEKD
Measurement notes: AlphaLISA ternary complex formation assay (GSPT1)
Format: binding
Applied conditions: 0.5 h; 1 μM compound; normalized to reference compound CC-885; read-out: Normalized AlphaLISA ternary complex average signal at 1 μM molecule
The reader will find reported activation at 1 µM values listed item by item below.
Measure: activation at 1 µM

>>> endpoint_result("Cc1nc2cc(COC(=O)Nc3cc(C(C)(C)C)n[nH]3)ccc2cc1C1CCC(=O)NC1=O (centres unmarked)")
"> 50%"
>>> endpoint_result("[2H]C([2H])(OC(=O)Nc1cc(C(C)(C)C)no1)c1ccc2cc(C3CCC(=O)NC3=O)c(C)nc2c1 (centres unmarked)")
"> 50%"
>>> endpoint_result("Cc1nc2ccc(COC(=O)NC3CCCCC3)cc2cc1N1CCC(=O)NC1=O")
"10 to 50%"
>>> endpoint_result("Cc1nc2cc(COC(=O)Nc3cccc(C(C)(C)C)c3)ccc2cc1C1CCC(=O)NC1=O (centres unmarked)")
"10 to 50%"
>>> endpoint_result("Cc1ccc(NC(=O)C(C)Oc2ccc3cc(C4CCC(=O)NC4=O)c(C)nc3c2)cc1Cl (centres unmarked)")
"< 10%"
>>> endpoint_result("Cc1nc2cc(OC(C)C(=O)NC3CCCCC3)ccc2cc1C1CCC(=O)NC1=O (centres unmarked)")
"< 10%"
>>> endpoint_result("Cc1ccc(NC(=O)OCc2ccc3cc(C4CCC(=O)NC4=O)c(C)nc3c2)cc1Cl (centres unmarked)")
"> 50%"
>>> endpoint_result("Cc1nc2cc(COC(=O)Nc3nc(C(C)(C)C)no3)ccc2cc1C1CCC(=O)NC1=O (centres unmarked)")
"> 50%"

====

Experimental system: [IKZF1 ZF2]-[compound]-[CRBN/DDB1] ternary complex (Homo sapiens, UniProt Q13422+Q96SW2)
Construct: IKZF1 ZF2
Sequence (Q13422 145-167 limits assumed): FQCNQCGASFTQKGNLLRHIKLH
Sequence (Q96SW2 whole entry): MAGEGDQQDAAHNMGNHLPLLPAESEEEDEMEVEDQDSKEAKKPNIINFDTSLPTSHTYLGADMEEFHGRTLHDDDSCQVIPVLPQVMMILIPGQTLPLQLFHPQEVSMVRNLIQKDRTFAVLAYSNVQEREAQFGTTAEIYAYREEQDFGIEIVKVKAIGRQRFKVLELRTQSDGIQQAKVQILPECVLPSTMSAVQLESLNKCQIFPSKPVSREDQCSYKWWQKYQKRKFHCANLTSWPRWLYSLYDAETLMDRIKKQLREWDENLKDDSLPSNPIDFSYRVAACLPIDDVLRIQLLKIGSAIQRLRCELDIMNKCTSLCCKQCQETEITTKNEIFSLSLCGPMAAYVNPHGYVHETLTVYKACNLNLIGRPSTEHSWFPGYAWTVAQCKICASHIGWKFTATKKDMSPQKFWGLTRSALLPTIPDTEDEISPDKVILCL
Sequence (Q16531 whole entry partner): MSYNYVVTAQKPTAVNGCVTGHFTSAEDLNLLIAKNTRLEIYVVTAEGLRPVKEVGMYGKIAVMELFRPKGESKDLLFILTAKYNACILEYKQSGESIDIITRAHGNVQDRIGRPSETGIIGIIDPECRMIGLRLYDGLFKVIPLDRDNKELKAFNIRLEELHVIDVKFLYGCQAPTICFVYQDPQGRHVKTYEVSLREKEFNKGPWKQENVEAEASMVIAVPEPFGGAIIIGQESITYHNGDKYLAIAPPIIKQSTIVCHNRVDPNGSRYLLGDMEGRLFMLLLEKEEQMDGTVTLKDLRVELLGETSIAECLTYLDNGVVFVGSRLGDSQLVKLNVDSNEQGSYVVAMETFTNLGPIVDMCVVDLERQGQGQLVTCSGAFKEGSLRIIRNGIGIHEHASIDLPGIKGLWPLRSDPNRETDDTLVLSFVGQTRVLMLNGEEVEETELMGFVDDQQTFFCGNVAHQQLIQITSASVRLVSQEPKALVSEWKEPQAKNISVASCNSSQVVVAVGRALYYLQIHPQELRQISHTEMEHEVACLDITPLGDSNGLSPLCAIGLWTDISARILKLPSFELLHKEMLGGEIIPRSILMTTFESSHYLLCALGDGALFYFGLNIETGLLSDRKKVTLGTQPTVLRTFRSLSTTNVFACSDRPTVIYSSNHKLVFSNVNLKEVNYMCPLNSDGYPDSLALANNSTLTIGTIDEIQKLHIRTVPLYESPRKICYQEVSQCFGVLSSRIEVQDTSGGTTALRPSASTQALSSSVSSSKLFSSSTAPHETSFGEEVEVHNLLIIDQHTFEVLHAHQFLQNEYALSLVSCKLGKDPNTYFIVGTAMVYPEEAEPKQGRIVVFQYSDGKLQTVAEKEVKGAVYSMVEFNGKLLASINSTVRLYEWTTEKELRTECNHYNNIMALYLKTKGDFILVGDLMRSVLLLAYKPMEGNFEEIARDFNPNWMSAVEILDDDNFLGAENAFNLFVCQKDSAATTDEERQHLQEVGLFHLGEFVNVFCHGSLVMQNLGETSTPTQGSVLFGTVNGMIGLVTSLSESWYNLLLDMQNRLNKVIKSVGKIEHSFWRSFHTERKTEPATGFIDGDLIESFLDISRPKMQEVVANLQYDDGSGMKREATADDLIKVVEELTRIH
Measurement notes: AlphaLISA assay for off-target recruitment detection, IKZF1 ZF2
Assay type: binding
Applied conditions: 1 μM compound; normalized to Lenalidomide; read-out: Normalized ternary complex response, IKZF1 ZF2
Procedure: The ability of the molecular glue compounds of the invention to mediate the proximity of CRBN with its known neo-substrates (shown in Table 3) was assessed using AlphaLISA to detect the formation of a [neo-substrate]-[compound of formula (I)]-[CRBN/DDB1] ternary complex. […] The read-out was performed with PerkinElmer Enspire Multimode Plate Reader (method for AlphaLISA 384-well low volume, Filterset: λexc=680 nm, λem=615 nm). […]
Measure: activation at 1 µM

>>> endpoint_result("Cc1nc2cc(COC(=O)Nc3ccc4c(c3)OCO4)ccc2cc1C1CCC(=O)NC1=O (stereo not shown)")
"< 10%"
>>> endpoint_result("COc1ccc(NC(=O)OCc2ccc3cc(C4CCC(=O)NC4=O)c(C)nc3c2)cc1Cl (stereo not shown)")
"< 10%"
>>> endpoint_result("Cc1nc2ccc(CNC(=O)Nc3cc(C(C)(C)C)no3)cc2cc1N1CCC(=O)NC1=O")
"≥ 50%"
>>> endpoint_result("Cc1ccc(NC(=O)OCc2ccc3cc([C@@H]4CCC(=O)NC4=O)c(C)nc3c2)cc1Cl")
"< 10%"

====

The reader will find reported pKi values listed item by item below.
Experimental system: CRBN/DDB1 protein complex (Homo sapiens)
Measurement notes: CRBN displacement TR-FRET assay
Applied conditions: Thalidomide-Red tracer, 6×His-CRBN/DDB1; read-out: CRBN binding Ki
pKi: −log10 of the molar value.
Measure: pKi

>>> endpoint_result("Cc1nc2cc(COC(=O)Nc3cccc(OC(F)(F)F)c3)ccc2cc1C1CCC(=O)NC1=O (stereo not shown)")
"< 6.00"
>>> endpoint_result("Cc1ccc(NCC(=O)NCc2ccc3nc(C)c(C4CCC(=O)NC4=O)cc3c2)cc1Cl (stereo not shown)")
"6.00 to 6.30"
>>> endpoint_result("Cc1nc2cc(COC(=O)Nc3csc(-c4ccccc4)c3)ccc2cc1C1CCC(=O)NC1=O (stereo not shown)")
"6.00 to 6.30"
>>> endpoint_result("Cc1nc2cc(COC(=O)Nc3ccc4c(c3)OCO4)ccc2cc1C1CCC(=O)NC1=O (stereo not shown)")
"< 6.00"
>>> endpoint_result("Cc1nc2ccc(CNC(=O)C(=O)N3CCC(C(C)(C)C)CC3)cc2cc1C1CCC(=O)NC1=O (stereo not shown)")
"> 6.30"
>>> endpoint_result("Cc1nc2cc(COC(=O)Nc3ccc(C(F)(F)F)c(Cl)c3)ccc2cc1C1CCC(=O)NC1=O (stereo not shown)")
"6.00 to 6.30"
>>> endpoint_result("Cc1ccc(NC(=O)OCc2ccc3nc(C)c(C4CCC(=O)NC4=O)cc3c2)cc1Cl (stereo not shown)")
"> 6.30"

====

Experimental system: CRBN/DDB1 protein complex (Homo sapiens, UniProt Q96SW2)
Sequence (Q96SW2 whole entry, species assumed): as the sequence (Q96SW2 whole entry) above
Sequence (Q16531 whole entry partner, species assumed): as the sequence (Q16531 whole entry partner) above
Measurement notes: CRBN displacement TR-FRET assay
Applied conditions: Thalidomide-Red tracer, 6×His-CRBN/DDB1; read-out: CRBN binding Ki
Description: CRBN/DDB1 protein complex was mixed with Thalidomide-Red and a compound to be tested (the “test compound”). […] The plate was spun-down (1 min, 1000 rpm, 22° C.) and then shaken using a VibroTurbulator for 30 sec at room temperature (20-25° C.), with the frequency set to level 10. The assay plate with protein and the tracer was incubated for 180 min at room temperature (20-25° C.) prior to read-out with a plate reader. […]
pKi: −log10 of the molar value.
Measure: pKi

>>> endpoint_result("Cc1nc2cc(COC(=O)Nc3cc(Cl)c(C)c(CN4CCOCC4)c3)ccc2cc1C1CCC(=O)NC1=O (stereo not shown)")
"> 6.30"
>>> endpoint_result("Cc1ccc(NC(=O)CCc2ccc3cc(C4CCC(=O)NC4=O)c(C)nc3c2)cc1Cl (stereo not shown)")
"6.00 to 6.30"
>>> endpoint_result("Cc1nc2cc(COC(=O)Nc3cc(C(F)(F)F)n[nH]3)ccc2cc1C1CCC(=O)NC1=O (stereo not shown)")
"< 6.00"
>>> endpoint_result("Cc1nc2ccc(CNC(=O)NC3CCCCC3)cc2cc1N1CCC(=O)NC1=O")
"< 6.00"
>>> endpoint_result("Cc1ccc(NC(=O)OCc2ccc3c(C)c(C4CCC(=O)NC4=O)c(C)nc3c2)cc1Cl (stereo not shown)")
"> 6.30"
>>> endpoint_result("Cc1ncc(NC(=O)OCc2ccc3cc(C4CCC(=O)NC4=O)c(C)nc3c2)cc1Cl (stereo not shown)")
"6.00 to 6.30"
>>> endpoint_result("Cc1nc2ccc(COC(=O)Nc3cc(OC(F)(F)F)ccc3F)cc2cc1C1CCC(=O)NC1=O (stereo not shown)")
"> 6.30"
>>> endpoint_result("Cc1ccc(NC(=O)NCc2ccc3cc(N4CCC(=O)NC4=O)c(C)nc3c2)cc1Cl")
"> 6.30"
>>> endpoint_result("Cc1nc2ccc(CNC(=O)C(=O)c3ccc(C(C)(C)C)cc3)cc2cc1C1CCC(=O)NC1=O (stereo not shown)")
"> 6.30"
>>> endpoint_result("Cc1nc2cc(CNC(=O)Nc3cc(C(C)(C)C)no3)ccc2cc1N1CCC(=O)NC1=O")
"> 6.30"

====

Experimental system: [GSPT1]-[compound of formula (I)]-[CRBN/DDB1] complex (Homo sapiens, UniProt P15170+Q96SW2)
Measurement notes: HTRF ternary complex assay (GSPT1)
Type: binding
Applied conditions: read-out: HTRF ternary complex Average pEC50 by molecule (converted)
The reader will find reported EC50 values listed item by item below.
Measure: EC50

>>> endpoint_result("Cc1ccc(NCC(=O)NCc2ccc3nc(C)c(C4CCC(=O)NC4=O)cc3c2)cc1Cl (stereo not shown) [Compound 26]")
"316 to 3160 nM"
>>> endpoint_result("Cc1nc2cc(COC(=O)Nc3cc(Cl)c(C)c(CN4CCOCC4)c3)ccc2cc1C1CCC(=O)NC1=O (stereo not shown) [Compound 17]")
"< 316 nM"
>>> endpoint_result("Cc1ccc(NC(=O)CCc2ccc3cc(C4CCC(=O)NC4=O)c(C)nc3c2)cc1Cl (stereo not shown) [Compound 32]")
"316 to 3160 nM"
>>> endpoint_result("COc1ccc(NC(=O)OCc2ccc3cc(C4CCC(=O)NC4=O)c(C)nc3c2)nn1 (stereo not shown) [Compound 45]")
"316 to 3160 nM"
>>> endpoint_result("Cc1ccc(NC(=O)OCc2ccc3c(C)c(C4CCC(=O)NC4=O)c(C)nc3c2)cc1Cl (stereo not shown) [Compound 44]")
"< 316 nM"
>>> endpoint_result("Cc1ccc(NC(=O)OCc2ccc3cc(C4CCC(=O)NC4=O)c(C)nc3c2F)cc1Cl (stereo not shown) [Compound 50]")
"316 to 3160 nM"
>>> endpoint_result("Cc1nc2ccc(CNC(=O)NC3CCCCC3)cc2cc1N1CCC(=O)NC1=O [Compound 52]")
"316 to 3160 nM"
>>> endpoint_result("COc1cnc(NC(=O)OCc2ccc3cc(C4CCC(=O)NC4=O)c(C)nc3c2)cn1 (stereo not shown) [Compound 59]")
"< 316 nM"
>>> endpoint_result("Cc1ccc(NC(=O)OCc2cc3nc(C)c(C4CCC(=O)NC4=O)cc3cc2C)cc1Cl (stereo not shown) [Compound 68]")
"> 3160 nM"
>>> endpoint_result("Cc1nc2ccc(CNC(=O)C(=O)c3ccc(C(C)(C)C)cc3)cc2cc1C1CCC(=O)NC1=O (stereo not shown) [Compound 1]")
"< 316 nM"
